Catalogue of emission maximum readings, one per entry.
- experimental.details: solvent given as SMILES
- condition: in Cc1ccccc1

{"record.smiles": "Cc1cc(-n2c3ccccc3c3cc4c(cc32)C2c3ccccc3C4c3ccccc32)ccc1-c1nc(-c2ccccc2)nc(-c2ccccc2)n1", "emission maximum": "429 nm"}
{"record.smiles": "c1ccc2c(c1)CC1(C2)c2cc(N3c4ccccc4Sc4ccccc43)ccc2-c2ccc(N3c4ccccc4Sc4ccccc43)cc21", "emission maximum": "495 nm"}
{"record.smiles": "CCCCN1c2ccccc2Sc2cc(/C=C/C3=Nc4ccc5ccccc5c4C3(C)C)ccc21", "emission maximum": "550 nm"}
{"record.smiles": "c1ccc2c(-c3ccc(-c4nnc(-c5ccc(-c6nnc(-c7ccc(-c8cccc9ccccc89)s7)o6)cc5)o4)s3)cccc2c1", "emission maximum": "434 nm"}
{"record.smiles": "COc1cc2cc(-c3cc4cc(OC)c(OC)cc4oc3=O)oc2cc1OC", "emission maximum": "475 nm"}
{"record.smiles": "CCCCCCOc1ccc(/C=C/c2ccc(N(c3ccc(/C=C/c4ccc(OCCCCCC)cc4)cc3)c3ccc(-c4nc5ccccc5nc4-c4ccc(N(c5ccc(/C=C/c6ccc(OCCCCCC)cc6)cc5)c5ccc(/C=C/c6ccc(OCCCCCC)cc6)cc5)cc4)cc3)cc2)cc1", "emission maximum": "505 nm"}
{"record.smiles": "CN(C)CCNc1ccc([N+](=O)[O-])cc1[N+](=O)[O-]", "emission maximum": "385 nm"}

---

- experimental.details: solvent given as SMILES
- condition: in O
API: label(entry) gives satisfied if the entry's emission maximum is strictly smaller than 600 nm; on equality or larger values it gives not satisfied.

{"molecule": "CC1(C)C(/C=C/C=C/C=C/C=C2/N(S(=O)(=O)[O-])c3ccc(S(=O)(=O)[O-])cc3C2(C)C)=[N+](S(=O)(=O)[O-])c2ccc(S(=O)(=O)[O-])cc21", "class.label": "not satisfied"}
{"molecule": "N#Cc1c(N2CCCCC2)cc(-c2ccc(O)cc2)c2c1-c1cccc3cccc-2c13", "class.label": "satisfied"}
{"molecule": "CCOC(=O)CCOc1ccc(C(c2c(C)[nH]c3ccccc23)c2c(C)[nH]c3ccccc23)cc1OC", "class.label": "satisfied"}
{"molecule": "CCOC(=O)c1ccccc1-c1c2ccc(=[N+](CC)CC)cc-2oc2c1c(=O)oc1cc3c(cc12)CCCN3C", "class.label": "not satisfied"}
{"molecule": "CN(C)c1ccc2c(c1)C(=O)NC2=O", "class.label": "satisfied"}
{"molecule": "[NH3+]c1ccc2ccc([O-])cc2c1", "class.label": "satisfied"}
{"molecule": "CC[n+]1c(-c2ccccc2)c2cc(NC(N)=[NH2+])ccc2c2ccc(NC(N)=[NH2+])cc21", "class.label": "satisfied"}
{"molecule": "O=[N+]([O-])c1ccc(/C=C/c2c[nH]c3ccccc23)cc1", "class.label": "satisfied"}
{"molecule": "N#Cc1cc2ccc([O-])cc2oc1=O", "class.label": "satisfied"}
{"molecule": "O=C1NC(=O)/C(=C\\c2ccccc2O)S1", "class.label": "satisfied"}
{"molecule": "CC(C)(C)c1cccc2c(O)cccc12", "class.label": "satisfied"}
{"molecule": "CNc1ccc(/C=C/C#N)cc1", "class.label": "satisfied"}
{"molecule": "CCCN1C(=O)C(=CC=CC=C2Oc3ccccc3N2CCCS(=O)(=O)[O-])C(=O)N(CCC)C1=S", "class.label": "satisfied"}
{"molecule": "NNC(=O)N1C(=O)c2cc(S(=O)(=O)[O-])cc3c(N)c(S(=O)(=O)[O-])cc(c23)C1=O", "class.label": "satisfied"}
{"molecule": "COc1cc2cc(-c3cc4cc(OC)c(OC)cc4oc3=O)oc2cc1OC", "class.label": "satisfied"}
{"molecule": "O=c1oc2ccccc2cc1-c1cc2ccccc2o1", "class.label": "satisfied"}
{"molecule": "Cc1ccc(C2=C3C=CC(=[N+](C)C)C=C3[Si](C)(C)c3cc(N(C)C)ccc32)c(C)c1", "class.label": "not satisfied"}
{"molecule": "N#Cc1c(N2CCCCC2)cc(-c2cccs2)c2c1-c1cccc3cccc-2c13", "class.label": "satisfied"}
{"molecule": "CCN(CC)c1ccc2cc3ccc(=[N+](CC)CC)cc-3oc2c1", "class.label": "satisfied"}
{"molecule": "O=S(=O)([O-])c1cc([O-])c2ccc3c(S(=O)(=O)[O-])cc(S(=O)(=O)[O-])c4ccc1c2c34", "class.label": "satisfied"}
{"molecule": "O=C(O)CCCCCn1c2ccc(Br)cc2c(=O)c2cc(Br)ccc21", "class.label": "satisfied"}
{"molecule": "CC[n+]1ccc(/C=C/c2cc(OC)c(C=O)cc2OC)cc1", "class.label": "satisfied"}
{"molecule": "CSc1ccc2c(c1)N(CCCN(C)C)c1ccccc1S2", "class.label": "satisfied"}
{"molecule": "O=C1CCCc2c1[nH]c1cc3c(cc21)OCO3", "class.label": "satisfied"}
{"molecule": "CC[N+]1=C(/C=C/C=C/C=C/C=C2/N(CCCCCC(=O)O)c3ccccc3C2(C)C)C(C)(C)c2cc(S(=O)(=O)[O-])ccc21", "class.label": "not satisfied"}
{"molecule": "CN(C)c1ccc2c(-c3cc(N)ccc3C(=O)[O-])c3ccc(=[N+](C)C)cc-3oc2c1", "class.label": "satisfied"}
{"molecule": "CC[N+]1(CC)CN2C(=N1)C(C(=O)O)=Cc1ccccc12", "class.label": "satisfied"}
{"molecule": "COc1ccc(C(=O)/C=C2\\C(=O)Nc3ccccc32)cc1", "class.label": "satisfied"}
{"molecule": "N#Cc1cccc2cc[nH]c12", "class.label": "satisfied"}
{"molecule": "CN1/C(=C/C=C(/C=C/C2=[N+](C)c3ccccc3C2(C)C)c2cc(F)cc(F)c2)C(C)(C)c2ccccc21", "class.label": "not satisfied"}
{"molecule": "COC(=O)C([NH3+])Cc1ccc2oc(-c3ccncc3)nc2c1 (stereo unspecified)", "class.label": "satisfied"}
{"molecule": "C[n+]1ccc(/C=C/c2ccc([O-])cc2)cc1", "class.label": "satisfied"}
{"molecule": "CCOC(=O)c1ccccc1-c1c2ccc(=[N+](CC)CC)cc-2oc2cc(N(CC)CC)ccc12", "class.label": "satisfied"}
{"molecule": "N#Cc1c[nH]c2ccccc12", "class.label": "satisfied"}
{"molecule": "O=C(O)CCCCCn1c2ccccc2c(=O)c2cc(F)ccc21", "class.label": "satisfied"}
{"molecule": "C[n+]1ccc(/C=C/c2ccc(N(c3ccccc3)c3ccc(/C=C/c4cc[n+](C)cc4)cc3)cc2)cc1", "class.label": "not satisfied"}
{"molecule": "CN1/C(=C/C=C(/C=C/c2sc3ccccc3[n+]2C)c2ccc(C(F)(F)F)cc2)Sc2ccccc21", "class.label": "not satisfied"}
{"molecule": "O=c1[nH]c(=O)c2scc([C@H]3C[C@H](O)[C@@H](CO)O3)c2[nH]1", "class.label": "satisfied"}
{"molecule": "CC(C)(C)c1cccc2c([O-])cccc12", "class.label": "satisfied"}
{"molecule": "O=c1c2cc3[nH]c4c(S(=O)(=O)O)cc(S(=O)(=O)O)cc4c(=O)c3cc2[nH]c2c(S(=O)(=O)O)cc(S(=O)(=O)O)cc12", "class.label": "satisfied"}

---

- experimental.details: solvent given as SMILES
- condition: in CCOC(C)=O

{"record.smiles": "CCC1=C(C)C2=C(C)c3cc(I)c(I)n3[B-](F)(F)[N+]2=C1C", "emission maximum, nm": 544.5}
{"record.smiles": "c1ccc(-c2nc(-c3ccc(-c4nc(-c5ccccc5)c(-c5ccccc5)[nH]4)cc3)[nH]c2-c2ccccc2)cc1", "emission maximum, nm": 420}
{"record.smiles": "CCCCCCCCCCCCCCCCOC(=O)c1ccc(N(c2ccccc2)c2ccccc2)cc1", "emission maximum, nm": 428}
{"record.smiles": "COC(=O)[C@H](Cc1ccc2oc3c(c2c1)=CC1=C(c2ccc(OC)cc2)c2cc4c5cc(C[C@H](NC(=O)OC(C)(C)C)C(=O)OC)ccc5oc4n2[B-](F)(F)[N+]=31)NC(=O)OC(C)(C)C", "emission maximum, nm": 597}
{"record.smiles": "COc1ccc(C(=O)/C=C2\\C(=O)Nc3ccccc32)cc1", "emission maximum, nm": 375}
{"record.smiles": "CN(C)CCNc1ccc([N+](=O)[O-])cc1[N+](=O)[O-]", "emission maximum, nm": 384}
{"record.smiles": "O=Cc1ccc(N(c2ccc(C=O)cc2)c2ccc(-c3ccc4c(c3)C(=O)c3ccccc3C4=O)cc2)cc1", "emission maximum, nm": 654}
{"record.smiles": "CCN(CC)c1ccc2cc(/C=C/C(O)=C3\\CC/C(=C\\c4cc5ccc(N(CC)CC)cc5oc4=O)C3=O)c(=O)oc2c1", "emission maximum, nm": 589}
